system: cysteine-containing SecR(G264A,I268A) constructs; test: Cysteine trapping with SecR(G264A,I268A) cysteine constructs, intact COS-1 cells; assay type: binding, human; conditions: G284C, ECL2; mean ± S.E.M., n = 3-5
No end group written: not given here.
measurement.label: Overall labeling

IN: Fill in the recorded Overall labeling for this substance, with cysteine-containing SecR(G264A,I268A) constructs as test system: Cys^5-[Tyr^10]secretin(1-27) (HSDGCFTSEYSRLREGARLQRLLQGLV; not fully specified; ends and bridges not checked; also: radioiodinated; UniProt P09683 28-54, looked up, variant T5C L10Y) [Cys^5-Sec, cysteine-containing secretin agonist probe, radioiodinated for cysteine trapping]
OUT: < 1 percentage

###

Listed here: items and their measured Intraloop labeling.
test system: cysteine-containing SecR(G264A,I268A) constructs; experiment: Cysteine trapping with SecR(G264A,I268A) cysteine constructs, intact COS-1 cells; type: binding, human; conditions: N291C, ECL2; mean ± S.E.M., n = 3-5
No end group written: not given here.

The examples below pair each entry with its known result.
substance: Cys^7-[Tyr^10]secretin(1-27) (HSDGTFCSEYSRLREGARLQRLLQGLV; not fully specified; ends and bridges not checked; also: radioiodinated; UniProt P09683 28-54, looked up, variant T7C L10Y) [Cys^7-Sec, cysteine-containing secretin agonist probe, radioiodinated for cysteine trapping]
measured.on: cysteine-containing SecR(G264A,I268A) constructs
measurement.label: Intraloop labeling
result: < 1 percentage

substance: Cys^6-[Tyr^10]secretin(1-27) (HSDGTCTSEYSRLREGARLQRLLQGLV; not fully specified; ends and bridges not checked; also: radioiodinated; UniProt P09683 28-54, looked up, variant F6C L10Y) [Cys^6-Sec, cysteine-containing secretin agonist probe, radioiodinated for cysteine trapping]
measured.on: cysteine-containing SecR(G264A,I268A) constructs
measurement.label: Intraloop labeling
result: < 1 percentage

IN: Fill in the recorded Intraloop labeling for this substance, with cysteine-containing SecR(G264A,I268A) constructs as test system: Cys^5-[Tyr^10]secretin(1-27) (HSDGCFTSEYSRLREGARLQRLLQGLV; not fully specified; ends and bridges not checked; also: radioiodinated; UniProt P09683 28-54, looked up, variant T5C L10Y) [Cys^5-Sec, cysteine-containing secretin agonist probe, radioiodinated for cysteine trapping]
OUT: < 1 percentage

###

Listed here: items and their measured Overall labeling.
test system: cysteine-containing SecR(G264A,I268A) constructs; assay: Cysteine trapping with SecR(G264A,I268A) cysteine constructs, intact COS-1 cells; assay type: binding, human; settings: E373C, ECL3; mean ± S.E.M., n = 3-5
No end group written: not given here.
Value expressed in percentage; do not type the unit.

substance: Cys^6-[Tyr^10]secretin(1-27) (HSDGTCTSEYSRLREGARLQRLLQGLV; not fully specified; ends and bridges not checked; also: radioiodinated; UniProt P09683 28-54, looked up, variant F6C L10Y) [Cys^6-Sec, cysteine-containing secretin agonist probe, radioiodinated for cysteine trapping]
measured.on: cysteine-containing SecR(G264A,I268A) constructs
Overall labeling, percentage: 13.9

Could you now look at the following substance, please?
IN: Quick one: Overall labeling of Cys^2-[Tyr^10]secretin(1-27) (HCDGTFTSEYSRLREGARLQRLLQGLV; not fully specified; ends and bridges not checked; also: radioiodinated; UniProt P09683 28-54, looked up, variant S2C L10Y) [Cys^2-Sec, cysteine-containing secretin agonist probe, radioiodinated for cysteine trapping] ?
OUT: 27.2
